# EXPERIMENTAL DETAILS: physchem
# Format: physicochemical
# CONDITION LABEL: aqueous with cosolvent or surfactant or cyclodextrin
# From the text: In some embodiments, the one or more organic compounds includes cyclodextrin or a cyclodextrin derivative. In some embodiments, the one or more organic compounds includes hydroxypropyl-beta-cyclodextrin (HPBCD). […] In an aqueous solution in which HPBCD is present at a concentration ranging from about 0.49 to about 0.55 wt. %, HPBCD monomers have a hydrodynamic size of 10 nm and aggregates of HPBCD form up to 100 nm in diameter (measured via dynamic light scattering).
REPORTED PROPERTY: solubility

Problem: # get_value(readout='solubility', item= COc1ccc2[nH]cc(CCNC(C)=O)c2c1 [melatonin] )
Solution: ~10000 µg/mL

====

# EXPERIMENTAL DETAILS: physchem
# Assay type: physicochemical
REPORTED PROPERTY: solubility

Problem: # get_value(readout='solubility', item= COc1ccc2[nH]cc(CCNC(C)=O)c2c1 [melatonin] )
Solution: ~100 µg/mL
